# target or test system: Tth DNA polymerase (rTth) (Thermus thermophilus) (UniProt P52028)
# Sequence (P52028 whole entry): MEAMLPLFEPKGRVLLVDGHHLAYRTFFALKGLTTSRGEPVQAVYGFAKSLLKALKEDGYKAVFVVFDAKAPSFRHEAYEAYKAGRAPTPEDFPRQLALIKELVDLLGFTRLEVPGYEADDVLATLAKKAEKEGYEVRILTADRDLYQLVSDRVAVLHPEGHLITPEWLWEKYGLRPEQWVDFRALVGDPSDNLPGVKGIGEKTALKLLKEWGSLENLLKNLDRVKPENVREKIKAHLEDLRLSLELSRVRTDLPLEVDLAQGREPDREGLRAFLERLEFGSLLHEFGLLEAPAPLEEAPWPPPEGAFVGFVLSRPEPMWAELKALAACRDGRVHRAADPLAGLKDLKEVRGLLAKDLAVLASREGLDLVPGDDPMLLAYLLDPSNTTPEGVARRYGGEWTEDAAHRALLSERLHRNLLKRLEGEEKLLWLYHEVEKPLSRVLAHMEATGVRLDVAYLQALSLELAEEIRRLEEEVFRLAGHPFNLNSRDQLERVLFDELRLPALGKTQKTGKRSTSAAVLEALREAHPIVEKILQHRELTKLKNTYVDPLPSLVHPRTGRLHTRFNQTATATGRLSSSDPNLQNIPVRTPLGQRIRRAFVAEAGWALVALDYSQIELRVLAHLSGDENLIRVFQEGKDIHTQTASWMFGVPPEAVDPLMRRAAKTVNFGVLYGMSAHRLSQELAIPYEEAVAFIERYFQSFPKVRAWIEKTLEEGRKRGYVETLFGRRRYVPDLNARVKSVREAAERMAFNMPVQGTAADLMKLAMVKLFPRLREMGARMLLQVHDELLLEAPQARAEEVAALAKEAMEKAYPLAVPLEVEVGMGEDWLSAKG
# assay details: filter
# experimental context: unselected pool; Bicine-KOH pH 8.3, 90 mM KCl, 3.5 mM Mn(OAc)2, room temperature
measured property: Kd (nM)

residues | measured property | units of measure | recorded result
TTCTCGGTTGGTCTCTGGCGGAGCNNNNNNNNNNNNNNNNNNNNNNNNNNNNNNTCTTGTGTATGATTCGCTTTTCCC [unselected random 30N ssDNA pool] | Kd | nM | 70

* * *

# target or test system: Tth DNA polymerase (rTth) (Thermus thermophilus)
# assay details: filter
# experimental context: cross binding of Taq-selected pool; room temperature

residues | Kd (pM)
TTCTCGGTTGGTCTCTGGCGGAGCNNNNNNNNNNNNNNNNNNNNNNNNNNNNNNTCTTGTGTATGATTCGCTTTTCCC [Taq-enriched ssDNA pool (round 12)] | 200
